Assay: Plasma pharmacokinetics of ESK-440 and metabolite CEP-38901
Format: in vivo, human
Details: human, plasma, oral, 25 mg/day, tmax, Day 15, 25 mg/day (N = 3), median (range)
Experimental Readout: Tmax (h)
Record the value in h, omitting the unit from your answer.

Tmax for CNC(=O)c1ccccc1Nc1nc(Nc2ccc3c(c2OC)CCC[C@H](N2CCN(CCO)CC2)C3)ncc1Cl [ESK-440] ? 3

###

Assay: Plasma pharmacokinetics of ESK-440 and metabolite CEP-38901
Assay type: in vivo, human
Conditions: human, plasma, oral, 25 mg/day, Cmax, Day 1, 25 mg/day (N = 3)
Experimental Readout: Cmax (ng/mL)
Record the value in ng/mL, omitting the unit from your answer.

Cmax for "CNC(=O)c1ccccc1Nc1nc(Nc2ccc3c(c2OC)CCC[C@H](N2CCN(CCO)CC2)C3)ncc1Cl" ? 20.7

###

Experiment: Plasma pharmacokinetics of ESK-440 and metabolite CEP-38901
Assay type: in vivo, human
Conditions: human, plasma, oral, 100 mg/day, AUC0-t, Day 1, 100 mg/day (N = 3)
Experimental Readout: AUC(0-t) (ng·h/mL)
Record the value in ng·h/mL, omitting the unit from your answer.

AUC(0-t) for "CNC(=O)c1ccccc1Nc1nc(Nc2ccc3c(c2OC)CCC[C@H](N2CCN(CCO)CC2)C3)ncc1Cl" ? 1540

###

Test: Plasma pharmacokinetics of ESK-440 and metabolite CEP-38901
Assay type: in vivo, human
Conditions: human, plasma, oral, 500 mg/day, AUC0-t, Day 1, 500 mg/day (N = 5)
Experimental Readout: AUC(0-t) (ng·h/mL)
Record the value in ng·h/mL, omitting the unit from your answer.

AUC(0-t) for "CNC(=O)c1ccccc1Nc1nc(Nc2ccc3c(c2OC)CCC[C@H](N2CCN(CCO)CC2)C3)ncc1Cl" ? 17800

###

Assay: Plasma pharmacokinetics of ESK-440 and metabolite CEP-38901
Assay type: in vivo, human
Settings: human, plasma, oral, 50 mg/day, Cmax, Day 15, 50 mg/day (N = 3)
Experimental Readout: Cmax (ng/mL)
Record the value in ng/mL, omitting the unit from your answer.

Cmax for "CNC(=O)c1ccccc1Nc1nc(Nc2ccc3c(c2OC)CCC[C@H](N2CCN(CCO)CC2)C3)ncc1Cl" ? 55.6

###

Experiment: Plasma pharmacokinetics of ESK-440 and metabolite CEP-38901
Format: in vivo, human
Conditions: human, plasma, oral, 350 mg/day, tmax, Day 15, 350 mg/day (N = 4), median (range)
Experimental Readout: Tmax
# answer = value followed by unit

Tmax for "CNC(=O)c1ccccc1Nc1nc(Nc2ccc3c(c2OC)CCC[C@H](N2CCN(CCO)CC2)C3)ncc1Cl" ? 4 h

###

Assay: Plasma pharmacokinetics of ESK-440 and metabolite CEP-38901
Type: in vivo, human
Settings: human, plasma, oral, 150 mg/day, AUC0-t, Day 1, 150 mg/day (N = 3)
Experimental Readout: AUC(0-t) (ng·h/mL)
Record the value in ng·h/mL, omitting the unit from your answer.

AUC(0-t) for "CNC(=O)c1ccccc1Nc1nc(Nc2ccc3c(c2OC)CCC[C@H](N2CCN(CCO)CC2)C3)ncc1Cl" ? 1560

###

Experiment: Plasma pharmacokinetics of ESK-440 and metabolite CEP-38901
Type: in vivo, human
Settings: human, plasma, oral, 700 mg/day, tmax, Day 1, 700 mg/day (N = 5), median (range)
Experimental Readout: Tmax (h)
Record the value in h, omitting the unit from your answer.

Tmax for "CNC(=O)c1ccccc1Nc1nc(Nc2ccc3c(c2OC)CCC[C@H](N2CCN(CCO)CC2)C3)ncc1Cl" ? 4

###

Experiment: Plasma pharmacokinetics of ESK-440 and metabolite CEP-38901
Type: in vivo, human
Details: human, plasma, oral, 25 mg/day
Experimental Readout: AUC (ng·h/mL)
Record the value in ng·h/mL, omitting the unit from your answer.

AUC for "CNC(=O)c1ccccc1Nc1nc(Nc2ccc3c(c2OC)CCC[C@H](N2CCN(CCO)CC2)C3)ncc1Cl" ? 666

###

Assay: Plasma pharmacokinetics of ESK-440 and metabolite CEP-38901
Format: in vivo, human
Conditions: human, plasma, oral, 250 mg/day, Cmax, Day 1, 250 mg/day (N = 4)
Experimental Readout: Cmax (ng/mL)
Record the value in ng/mL, omitting the unit from your answer.

Cmax for CNC(=O)c1ccccc1Nc1nc(Nc2ccc3c(c2OC)CCC[C@H](N2CCN(CCO)CC2)C3)ncc1Cl [ESK-440] ? 435

###

Experiment: Plasma pharmacokinetics of ESK-440 and metabolite CEP-38901
Assay type: in vivo, human
Settings: human, plasma, oral, 700 mg/day, tmax, Day 15, 700 mg/day (N = 5), median (range)
Experimental Readout: Tmax (h)
Record the value in h, omitting the unit from your answer.

Tmax for CNC(=O)c1ccccc1Nc1nc(Nc2ccc3c(c2OC)CCC[C@H](N2CCN(CCO)CC2)C3)ncc1Cl [ESK-440] ? 6.1

###

Experiment: Plasma pharmacokinetics of ESK-440 and metabolite CEP-38901
Format: in vivo, human
Conditions: human, plasma, oral, 25 mg/day, tmax, Day 1, 25 mg/day (N = 3), median (range)
Experimental Readout: Tmax (h)
Record the value in h, omitting the unit from your answer.

Tmax for "CNC(=O)c1ccccc1Nc1nc(Nc2ccc3c(c2OC)CCC[C@H](N2CCN(CCO)CC2)C3)ncc1Cl" ? 3

###

Experiment: Plasma pharmacokinetics of ESK-440 and metabolite CEP-38901
Assay type: in vivo, human
Conditions: human, plasma, oral, 150 mg/day
Experimental Readout: AUC (ng·h/mL)
Record the value in ng·h/mL, omitting the unit from your answer.

AUC for CNC(=O)c1ccccc1Nc1nc(Nc2ccc3c(c2OC)CCC[C@H](N2CCN(CCO)CC2)C3)ncc1Cl [ESK-440] ? 4980

###

Test: Plasma pharmacokinetics of ESK-440 and metabolite CEP-38901
Format: in vivo, human
Details: human, plasma, oral, 50 mg/day, AUC0-24, Day 1, 50 mg/day (N = 3)
Experimental Readout: AUC(0-t) (ng·h/mL)
Record the value in ng·h/mL, omitting the unit from your answer.

AUC(0-t) for "CNC(=O)c1ccccc1Nc1nc(Nc2ccc3c(c2OC)CCC[C@H](N2CCN(CCO)CC2)C3)ncc1Cl" ? 508

###

Experiment: Plasma pharmacokinetics of ESK-440 and metabolite CEP-38901
Type: in vivo, human
Details: human, plasma, oral, 250 mg/day, AUC0-24, Day 1, 250 mg/day (N = 4)
Experimental Readout: AUC(0-t) (ng·h/mL)
Record the value in ng·h/mL, omitting the unit from your answer.

AUC(0-t) for "CNC(=O)c1ccccc1Nc1nc(Nc2ccc3c(c2OC)CCC[C@H](N2CCN(CCO)CC2)C3)ncc1Cl" ? 4740

###

Experiment: Plasma pharmacokinetics of ESK-440 and metabolite CEP-38901
Type: in vivo, human
Conditions: human, plasma, oral, 100 mg/day, Cmax, Day 15, 100 mg/day (N = 3)
Experimental Readout: Cmax
# answer = value followed by unit

Cmax for CNC(=O)c1ccccc1Nc1nc(Nc2ccc3c(c2OC)CCC[C@H](N2CCN(CCO)CC2)C3)ncc1Cl [ESK-440] ? 273 ng/mL

###

Test: Plasma pharmacokinetics of ESK-440 and metabolite CEP-38901
Format: in vivo, human
Details: human, plasma, oral, 250 mg/day, AUC0-t, Day 15, 250 mg/day (N = 4)
Experimental Readout: AUC(0-t) (ng·h/mL)
Record the value in ng·h/mL, omitting the unit from your answer.

AUC(0-t) for "CNC(=O)c1ccccc1Nc1nc(Nc2ccc3c(c2OC)CCC[C@H](N2CCN(CCO)CC2)C3)ncc1Cl" ? 14200

###

Assay: Plasma pharmacokinetics of ESK-440 and metabolite CEP-38901
Format: in vivo, human
Details: human, plasma, oral, 100 mg/day, AUC0-24, Day 1, 100 mg/day (N = 3)
Experimental Readout: AUC(0-t) (ng·h/mL)
Record the value in ng·h/mL, omitting the unit from your answer.

AUC(0-t) for CNC(=O)c1ccccc1Nc1nc(Nc2ccc3c(c2OC)CCC[C@H](N2CCN(CCO)CC2)C3)ncc1Cl [ESK-440] ? 1480
